target: BRG-1 (Homo sapiens, UniProt P51532)
Sequence (P51532 whole entry): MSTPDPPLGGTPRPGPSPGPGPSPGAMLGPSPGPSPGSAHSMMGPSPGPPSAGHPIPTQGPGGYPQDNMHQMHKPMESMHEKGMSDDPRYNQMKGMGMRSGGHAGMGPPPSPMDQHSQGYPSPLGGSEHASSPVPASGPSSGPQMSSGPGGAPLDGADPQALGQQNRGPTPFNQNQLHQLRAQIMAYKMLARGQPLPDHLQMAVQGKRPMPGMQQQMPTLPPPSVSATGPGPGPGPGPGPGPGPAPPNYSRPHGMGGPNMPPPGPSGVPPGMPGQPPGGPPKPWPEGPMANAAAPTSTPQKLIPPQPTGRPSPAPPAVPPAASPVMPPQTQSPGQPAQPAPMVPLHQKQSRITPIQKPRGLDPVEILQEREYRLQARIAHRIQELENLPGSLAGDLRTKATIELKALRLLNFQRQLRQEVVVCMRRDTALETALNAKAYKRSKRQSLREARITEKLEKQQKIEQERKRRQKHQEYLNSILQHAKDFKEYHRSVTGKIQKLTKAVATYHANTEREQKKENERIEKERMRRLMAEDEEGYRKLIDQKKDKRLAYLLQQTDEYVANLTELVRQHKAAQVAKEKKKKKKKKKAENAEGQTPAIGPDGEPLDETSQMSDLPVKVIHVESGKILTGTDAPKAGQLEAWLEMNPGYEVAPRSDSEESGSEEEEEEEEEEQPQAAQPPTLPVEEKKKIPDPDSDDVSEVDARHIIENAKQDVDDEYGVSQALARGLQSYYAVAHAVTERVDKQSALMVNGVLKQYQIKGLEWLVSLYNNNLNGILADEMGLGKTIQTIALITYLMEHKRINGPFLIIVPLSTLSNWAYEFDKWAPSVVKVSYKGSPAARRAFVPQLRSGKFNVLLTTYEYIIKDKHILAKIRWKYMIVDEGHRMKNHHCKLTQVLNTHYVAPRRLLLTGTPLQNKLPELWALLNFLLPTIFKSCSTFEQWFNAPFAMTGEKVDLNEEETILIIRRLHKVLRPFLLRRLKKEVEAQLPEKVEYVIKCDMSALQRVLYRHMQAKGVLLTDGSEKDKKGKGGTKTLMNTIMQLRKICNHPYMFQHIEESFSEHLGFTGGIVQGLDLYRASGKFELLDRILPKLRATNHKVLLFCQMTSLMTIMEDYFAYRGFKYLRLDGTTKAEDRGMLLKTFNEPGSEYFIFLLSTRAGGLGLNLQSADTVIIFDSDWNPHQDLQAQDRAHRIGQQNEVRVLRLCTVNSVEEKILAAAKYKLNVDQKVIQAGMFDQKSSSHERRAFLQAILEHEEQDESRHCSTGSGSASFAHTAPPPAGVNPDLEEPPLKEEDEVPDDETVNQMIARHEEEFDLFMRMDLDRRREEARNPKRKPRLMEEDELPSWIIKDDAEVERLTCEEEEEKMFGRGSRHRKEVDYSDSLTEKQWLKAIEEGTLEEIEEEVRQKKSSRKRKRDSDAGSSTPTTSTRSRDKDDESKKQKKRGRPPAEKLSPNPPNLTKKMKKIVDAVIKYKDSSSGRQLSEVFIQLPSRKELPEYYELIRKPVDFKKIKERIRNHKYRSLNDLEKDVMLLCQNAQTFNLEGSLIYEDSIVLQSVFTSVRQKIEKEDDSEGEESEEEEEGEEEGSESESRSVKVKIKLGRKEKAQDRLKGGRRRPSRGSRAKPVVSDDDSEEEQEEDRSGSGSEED
protocol: ATPase catalytic activity assay (ADP-Glo), BRG-1
conditions: 1 h, read-out: BRG1 Max % Inhibition, ADP-Glo, 30 nM BRG-1, 400 μM ATP
Please provide measured Emax for the entries that follow.
Report the value in % with no unit label.

IN: GET /values?readout=Emax&item= C[C@@]1(C#N)COCc2ccc(C(=O)NCc3cc([C@H]4C[C@@H](c5cccc(C6CC6)n5)C4)ccn3)cc21
OUT: 79

IN: GET /values?readout=Emax&item= C[C@@]1(C#N)COCc2ccc(C(=O)NCc3cc4nc(-c5ccccc5OCCO)ccc4cn3)cc21
OUT: 53

IN: GET /values?readout=Emax&item= COc1cc(C(F)F)ccc1-c1ccc2cnc(CNC(=O)c3ccc4c(c3)[C@](C)(C#N)COC4)cc2n1
OUT: 96

IN: GET /values?readout=Emax&item= COc1cccc(/C=C/c2ccnc(CNC(=O)c3ccc4c(c3)[C@](C)(C#N)COC4)c2)c1
OUT: 86

IN: GET /values?readout=Emax&item= C[C@@]1(C#N)COCc2ccc(C(=O)NCc3cc4c(cn3)CCN(c3ccnc(C5CC5)n3)C4)cc21
OUT: 48

IN: GET /values?readout=Emax&item= Cn1ncc2ccc(-c3ccc4cnc(CNC(=O)c5ccc6c(c5)[C@](C)(C#N)COC6)cc4n3)cc2c1=O
OUT: 93

IN: GET /values?readout=Emax&item= C[C@@]1(F)COCc2ccc(C(=O)NCc3cc4nc(-c5cccc(C6(O)CC(F)(F)C6)n5)ccc4cn3)cc21
OUT: 91

IN: GET /values?readout=Emax&item= C[C@@]1(C#N)COCc2ncc(C(=O)NCc3cc4nc(-c5ccccc5)ccc4cn3)cc21
OUT: 62

IN: GET /values?readout=Emax&item= COC1(c2cccc(-c3ccc4cnc(CNC(=O)c5ccc6c(c5)[C@](C)(C#N)COC6)cc4n3)n2)COC1
OUT: 64

IN: GET /values?readout=Emax&item= C[C@@]1(C#N)COCc2ccc(C(=O)NCc3cc4nc(N5CCN(C6CC6)C5=O)ccc4cn3)cc21
OUT: 46

IN: GET /values?readout=Emax&item= C[C@@]1(C#N)COCc2ccc(C(=O)NCc3cc4nc(-c5cnn6c5OCCC6)ccc4cn3)cc21
OUT: 55

IN: GET /values?readout=Emax&item= C[C@@]1(C#N)COCc2c(F)cc(C(=O)NCc3cc4nc(-c5ccccc5)ccc4cn3)cc21
OUT: 68

IN: GET /values?readout=Emax&item= C[C@@]1(C#N)COCc2ccc(C(=O)NCc3cc(N4CCC(O)(c5ccccc5)C4)ccn3)cc21 (stereo partly drawn)
OUT: 42

IN: GET /values?readout=Emax&item= C[C@@]1(C#N)COCc2ccc(C(=O)NCc3cc4nc(-n5cccn5)ccc4cn3)cc21
OUT: 72

IN: GET /values?readout=Emax&item= C[C@@]1(C#N)COCc2ccc(C(=O)NCc3cc4cc(-c5nccc(N6CCC6)n5)ccc4nn3)cc21
OUT: 84

IN: GET /values?readout=Emax&item= COC(=O)N1CCC2CC2(c2ccc3cnc(CNC(=O)c4ccc5c(c4)[C@](C)(C#N)COC5)cc3n2)C1 (stereo partly drawn)
OUT: 58

IN: GET /values?readout=Emax&item= COC1CCN(c2nccc(-c3ccc4cnc(CNC(=O)c5ccc6c(c5)[C@](C)(C#N)COC6)cc4n3)n2)C1 (stereo partly drawn)
OUT: 97

IN: GET /values?readout=Emax&item= O=C(NCc1cc2nc(-c3cncc(C4CC4)n3)ccc2cn1)c1cnc2c(c1)[C@](F)(C(F)F)COC2
OUT: 98

IN: GET /values?readout=Emax&item= COc1nn(C2CCOC2)cc1-c1ccc2cnc(CNC(=O)c3ccc4c(c3)[C@](C)(C#N)COC4)cc2n1 (stereo partly drawn)
OUT: 59

IN: GET /values?readout=Emax&item= C[C@@]1(C#N)COCc2ccc(C(=O)NCc3cc4nc(-n5cccc(N6CCC6)c5=O)ccc4cn3)cc21
OUT: 63

IN: GET /values?readout=Emax&item= CN(C)c1cccc(-c2ccc3cnc(CNC(=O)c4cnc5c(c4)[C@](F)(C(F)F)COC5)cc3n2)n1
OUT: 100

IN: GET /values?readout=Emax&item= COCCNC(=O)c1ccc(-c2ccc3cnc(CNC(=O)c4ccc5c(c4)[C@](C)(C#N)COC5)cc3n2)cc1
OUT: 76

IN: GET /values?readout=Emax&item= C[C@@]1(C#N)COCc2ccc(C(=O)NCc3cc4nc(-c5cncc(N6CCOCC6)n5)ccc4cn3)cc21
OUT: 93

IN: GET /values?readout=Emax&item= C[C@@]1(C#N)COCc2ccc(C(=O)NCc3nccc(C#Cc4ccccc4)c3F)cc21
OUT: 51
